The measured values listed here are drawn from ChEMBL document CHEMBL1201862.

test system: T47D; assay: NCI tumour cell line growth inhibition, 48 h
The source made the active and inactive calls. No stated cut-off is given here; in the data, active = GI50 up to about 1.1 µM and inactive = higher.
Write down one outcome, taken from true = active, false = inactive

Data request: Entry `Cc1ccccc1NC(=O)/C(C#N)=N\Nc1[nH]cnc1C(N)=O` : call = ?
Data returned: false

Data request: Entry `O=C(c1ccc(Cl)c(Cl)c1)N(Cc1cccnc1)C(=S)N(Cc1cccnc1)C(=O)c1ccc(Cl)c(Cl)c1` : call = ?
Data returned: false

Data request: Entry `O=C(C/C(=N/O)C(F)(F)F)c1cccs1` : call = ?
Data returned: false

Data request: Entry [O-][S+](Nc1ccccc1)c1ccc(Cl)cc1 (stereo not given) : call = ?
Data returned: false

Data request: Entry `CSc1nc(C#N)c(N)n1C` : call = ?
Data returned: false

Data request: Entry `Cc1cc2c(O)c(c1)COCc1cc(C)cc(c1O)COCc1cc(C)cc(c1O)COC2` : call = ?
Data returned: false

Data request: Entry `OCCCCn1cc(Cn2ncc3c(SCc4ccccc4)ncnc32)nn1` : call = ?
Data returned: false

Data request: Entry CC(O)C(NC(=O)C(CS)NC(=O)C(CO)NC(=O)C(CCCCN)NC(=O)C(Cc1c[nH]c2ccccc12)NC(=O)C(Cc1ccc(O)cc1)NC(=O)C(CS)NC(=O)C(N)Cc1ccccc1)C(N)=O (stereo not given) : call = ?
Data returned: false

Data request: Entry `Cc1cccc(/N=N/c2c(C)nn(C(=O)CC(=O)Nc3ccccc3)c2C)c1` : call = ?
Data returned: false

Data request: Entry C[C@H]1C=C2[C@@H]3CC(C)(C(=O)O)CC[C@]3(C)CC[C@]2(C)[C@]2(C)CC[C@H]3C(C)(C)[C@@H](OC(=O)c4cccc5c(=O)c6ccccc6[nH]c45)CC[C@]3(C)[C@@H]12 (stereo not given in full) : call = ?
Data returned: false

Data request: Entry O=C(Nc1ccc(Cl)c(Cl)c1)C(=O)C(C1OC(=O)c2ccccc21)[N+](=O)[O-] (stereo not given) : call = ?
Data returned: false

Data request: Entry `O=c1c2ccccc2c2ccccc2c(=O)n1-c1cc2c3ccccc3ccc2c2ccccc12` : call = ?
Data returned: false

Data request: Entry `CC(=O)O[C@@H]1C(=O)N(c2ccccc2)[C@@H]1c1cc2ccccc2c2ccccc12` : call = ?
Data returned: false

Data request: Entry `COc1cc(Cn2c(=S)ss/c2=N\C(=S)N(C)C)cc(OC)c1OC` : call = ?
Data returned: false

Data request: Entry Nc1nc(Cl)cc(NCC2(CO)CCC(O)C2)n1 (stereo not given) : call = ?
Data returned: false

Data request: Entry `O[C@@H]1C[C@@H]2N[C@@](O)(C[C@@H]2O)[C@H]1O` : call = ?
Data returned: false

Data request: Entry `O=C1C(Cl)=C(N2CCN(CCOCCO)CC2)C(=O)c2c(O)ccc(O)c21` : call = ?
Data returned: true

Data request: Entry `O=c1[nH]c2ccc(Cl)cc2o1` : call = ?
Data returned: false

Data request: Entry `COc1cc(-c2oc(/C=N/c3ccccc3)c([N+](=O)[O-])c2-c2ccc(O)c(OC)c2)ccc1O` : call = ?
Data returned: false

Data request: Entry `CCC(=O)NI1OC(=O)c2ccccc21` : call = ?
Data returned: false

====

// endpoint GI50 / system HCT-15
State the answer as a number, implicitly in µM.

Kindly note the recorded GI50 for `CCCCCCCCCCCC(=O)c1c(O)cccc1O` , which is 18.6

Kindly note the recorded GI50 for `c1ccc2c(Cc3c[nH]c4ccccc34)c[nH]c2c1` , which is 23.4

Kindly note the recorded GI50 for `O=C(c1ccc(Cl)c(Cl)c1)N(Cc1cccnc1)C(=S)N(Cc1cccnc1)C(=O)c1ccc(Cl)c(Cl)c1` , which is 20

Kindly note the recorded GI50 for `O=C1C(Cl)=C(N2CCN(CCOCCO)CC2)C(=O)c2c(O)ccc(O)c21` , which is 0.227

Kindly note the recorded GI50 for `N#CC1(C#N)C2(c3ccccc3)OC(c3ccccc3)(c3cc4ccccc4cc32)C1(C#N)C#N` , which is 12.2

Kindly note the recorded GI50 for CCc1cccc(C(C)C)c1NC(=O)CC1Sc2ccccc2NC1=O (configuration not stated) , which is 47.9

Kindly note the recorded GI50 for `O=C1C(Cl)=C(N2CCN(c3ccccn3)CC2)C(=O)c2ncccc21` , which is 1.66

Kindly note the recorded GI50 for CN1C(=O)n2c(nc3ccccc32)C(N=[N+]=[N-])(N=[N+]=[N-])C1=O (configuration not stated) , which is 99.1

Kindly note the recorded GI50 for `CCN(CC)Cc1cc(Nc2ccnc3ccc4c(nnn4C)c23)ccc1O` , which is 3.67

Kindly note the recorded GI50 for COC1/C=C\OC2(C)Oc3c(C)c(O)c4c(O)c(c(CN(C)C)c(O)c4c3C2=O)NC(=O)/C(C)=C\C=C/C(C)C(O)C(C)C(O)C(C)C(OC(C)=O)C1C (configuration not stated) , which is 44.2

Kindly note the recorded GI50 for `NC(=O)N/C=C1\C(=O)Oc2ccccc2C1=O` , which is 48.5

Kindly note the recorded GI50 for `O=C(O)/C=c1/c2ccccc2n2nc3ccccc3c12` , which is 26.8

Kindly note the recorded GI50 for CCc1cccc(C(C)C)c1NC(=O)C(=O)C(CC(=O)Nc1ccc(Cl)c(Cl)c1)C(=O)OC (configuration not stated) , which is 14.8

Kindly note the recorded GI50 for CCN1CCC(O)(c2ccc(Oc3ccc(Cl)cc3)cc2)C(C(=O)c2ccc(Oc3ccc(Cl)cc3)cc2)C1 (configuration not stated) , which is 7.35

Kindly note the recorded GI50 for C[C@]12CC[C@H](OC(=O)Nc3ccccc3)CC1=CC[C@@H]1C2CC[C@]2(C)/C(=N/OC(=O)Nc3ccccc3)CCC12 (some centres not stated) , which is 1.77

Kindly note the recorded GI50 for `CNCCCNc1c2ccccc2nc2cccc([N+](=O)[O-])c12` , which is 0.00957

Kindly note the recorded GI50 for `c1ccc(-c2nnc(SCc3c[nH]c4ccccc34)n2-c2ccccc2)cc1` , which is 45

====

system: M14; test: NCI tumour cell line growth inhibition, 48 h
Activity calls are given as the source filed them. Rule as the data show it: active = GI50 up to about 1.1 µM and inactive = higher. Where a SMILES comes first, the peptide text is derived from it. Bridges are numbered along the chain shown (N, C = ends). The star is where a group is joined. Cbz = O=C(OCc1ccccc1)*
Assign GI50 to each entry below.

Kindly note the recorded GI50 for `N#CC(C#N)=Cc1c(O)ccc2ccccc12` , which is 13.8 µM (inactive)

Kindly note the recorded GI50 for `O=S(=O)(Nc1nc2ccccc2nc1Nc1cccc2ccccc12)c1ccccc1` , which is 62.4 µM (inactive)

Kindly note the recorded GI50 for `COC(=O)N1CCc2c(nc(N(C)CCO)[nH]c2=O)C1` , which is > 100 µM (inactive)

Kindly note the recorded GI50 for COC(=N)C12C(N)=NC(OC)(OC)C1(C#N)C21C(=O)N(c2ccccc2)N=C1C (stereo not given) , which is > 100 µM (inactive)

Kindly note the recorded GI50 for COC(=O)C1CCCCNC(=O)CCC(NC(=O)OCc2ccccc2)C(=O)N1 (stereo not drawn) (Cbz-Glu-Lys-OMe; lactam 1-2; configuration not given here) , which is > 100 µM (inactive)

====

tested on: OVCAR-8; assay: NCI tumour cell line growth inhibition, 48 h
The source made the active and inactive calls. No stated cut-off is given here; in the data, active = GI50 up to about 1.1 µM and inactive = higher.
readout_kind: GI50

Kindly note the recorded GI50 for `O=C1c2ccccc2S(=O)(=O)c2c1cccc2[N+](=O)[O-]` , which is 2.1 µM (inactive)

Kindly note the recorded GI50 for Cc1ccc(C2(N3CCOCC3)OC(C)(C)c3cccc4cccc2c34)cc1 (stereo unspecified) , which is 16.9 µM (inactive)

Kindly note the recorded GI50 for `COC(=O)c1cc(O)ccc1NC(=O)c1ccc(O)cc1` , which is > 100 µM (inactive)

Kindly note the recorded GI50 for `COc1cc2c(cc1O)C(=O)O[C@@H]1CC=C3CCN(C)[C@H]3[C@H]21` , which is > 25 µM (inactive)

Kindly note the recorded GI50 for `CCOC(=O)C1=C(Nc2cccc3ccccc23)OCC1=O` , which is > 100 µM (inactive)

Kindly note the recorded GI50 for Clc1ccc(C2=Nc3ccccc3SC(c3cccs3)C2)cc1 (stereo unspecified) , which is 16.2 µM (inactive)

Kindly note the recorded GI50 for `CCCC(c1cc(C(C)(C)C)c(O)cc1C)c1cc(C(C)(C)C)c(O)cc1C` , which is 4.03 µM (inactive)

Kindly note the recorded GI50 for `COc1cc(Cn2c(=S)ss/c2=N\C(=S)N(C)C)cc(OC)c1OC` , which is 52.6 µM (inactive)

Kindly note the recorded GI50 for Cc1ccc2c(c1)C=CC(C#N)N2C(=O)Oc1ccccc1 (stereo unspecified) , which is 17.4 µM (inactive)

Kindly note the recorded GI50 for `c1ccc2sc(SCCSc3nc4ccccc4s3)nc2c1` , which is > 100 µM (inactive)

Kindly note the recorded GI50 for `O=C1CCC(=O)N1CNc1ccc2c(c1)Sc1ccccc1O2` , which is 25.9 µM (inactive)
